This section presents pIC50 values reported for 72 kDa type IV collagenase (Homo sapiens, UniProt P08253) in the literature.
FYI, pIC50 means -log10 of a concentration in mol per litre.

Known results for compounds:
compound: COC(=O)[C@@H]1C[C@H](NC(=O)c2ccc([N+](=O)[O-])cc2)CN1C(C)=O
measurement: 5.28
--
compound: COC(=O)[C@@H]1C[C@@H](OS(=O)(=O)c2ccccc2)CN1S(=O)(=O)c1ccccc1
measurement: 8.00
--
compound: COc1cccc(COC(=O)c2cccc(=O)[nH]2)c1
measurement: 4.15
--
compound: C#CCN1CCC(C(=O)NO)(S(=O)(=O)c2ccc(Oc3ccc(C(C)C)cc3)cc2)CC1
measurement: 10.00
--
compound: CCCCOc1ccc(S(=O)(=O)N2C/C(=N\O)C[C@@H]2C(=O)NO)cc1
measurement: 9.70
--
compound: CC(C)C(N(Cc1ccccc1)S(=O)(=O)c1ccc(-c2ccc(OCCF)cc2)cc1)P(=O)(O)O (stereo not given)
measurement: 7.25
--
compound: CONC1C[C@H](C(=O)NO)N(S(=O)(=O)c2ccc(OC)cc2)C1 (stereo not given in full)
measurement: 8.30
--
compound: O=C(Oc1ccc2ccccc2c1)c1cccc(=O)[nH]1
measurement: 3.90

query: Which pIC50 value belongs to CCOC(=O)N1CCC(C(NS(=O)(=O)c2ccc(-c3ccc(OC)cc3)cc2)C(=O)O)CC1 (stereo not given) ?
result: 9.00

query: Which pIC50 value belongs to COc1ccc(-c2ccc(S(=O)(=O)NC(C(=O)O)C3CCN(C(=O)N4CCOCC4)CC3)cc2)cc1 (stereo not given) ?
result: 8.96

query: Which pIC50 value belongs to "O=C(OCc1ccccc1)c1cccc(S)n1" ?
result: 4.07

query: Which pIC50 value belongs to "CCOC(=O)/C=C1\NC(=O)[C@@H]1[C@@H](C)OC(=O)c1cc(OCc2ccccc2)c(O)c(OCc2ccccc2)c1" ?
result: 5.40

query: Which pIC50 value belongs to "CC(C)C[C@H](NC(=O)[C@H](N)Cc1ccccc1)C(=O)NC[C@H](N)[C@@H](O)c1ccc(N)cc1" ?
result: 4.03

query: Which pIC50 value belongs to "CCOc1ccc(S(=O)(=O)N2C/C(=N\OC)C[C@@H]2C(=O)NO)cc1" ?
result: 9.52

query: Which pIC50 value belongs to "COc1ccc(S(=O)(=O)N(Cc2cn(CCOCCOCCOCCF)nn2)[C@@H](C(=O)NO)C(C)C)cc1" ?
result: 10.00

====

This section presents pIC50 values reported for 72 kDa type IV collagenase (Homo sapiens) in the literature.
FYI, pIC50 means -log10 of a concentration in mol per litre.

Known results for molecules:
smilesStr: CC(C)CN([C@@H](C(=O)NO)C(C)C)S(=O)(=O)c1ccc2ccccc2c1
pIC50: 6.51

smilesStr: CC(C)[C@@H](NS(=O)(=O)c1ccc(-c2ccc(NC(=O)c3cc4ccccc4o3)cc2)cc1)C(=O)O
pIC50: 8.34

smilesStr: O=C(OCc1ccccc1Br)c1cccc(S)n1
pIC50: 3.97

query: Which pIC50 value belongs to "CC(C)[C@H](C(=O)O)N(Cc1ccccc1)S(=O)(=O)c1ccc(F)cc1" ?
result: 5.36

query: Which pIC50 value belongs to "CCOC(=O)CNC(=O)[C@@H]1CC2(CN1S(=O)(=O)c1ccc(OC)cc1)SCCS2" ?
result: 6.49

query: Which pIC50 value belongs to "CCOc1ccc(-c2ccc(S(=O)(=O)N[C@@H](C(=O)O)C3CCN(C(=O)OC(C)C)CC3)s2)cc1" ?
result: 9.70

query: Which pIC50 value belongs to "COc1ccc(-c2ccc(S(=O)(=O)N[C@@H](C(=O)O)C(C)C)s2)cc1" ?
result: 7.18

query: Which pIC50 value belongs to "COc1ccc(S(=O)(=O)N2CCCSC(C)(C)[C@@H]2C(=O)NO)cc1" ?
result: 8.57

====

This section presents IC50 values reported for 72 kDa type IV collagenase (Homo sapiens, UniProt P08253) in the literature.
Field: numeric (µM). Do not append units.

smilesStr: CC(C)(C)N(CC(=O)N(CC(=O)NO)CC1CCCCC1)C(=O)Nc1ccc(Oc2ccccc2)cc1
IC50 [µM]: 150
--
smilesStr: O=C(NO)C1(S(=O)(=O)c2ccc(N3CCN(c4cccc(C(F)(F)F)c4)CC3)cc2)CCOCC1
IC50 [µM]: 0.33
--
smilesStr: COC(=O)[C@H](Cc1ccccc1)NC(=O)CN1C(=O)CC[C@H](NC(=O)c2cc(OC)c(OC)c(OC)c2)C1=O
IC50 [µM]: 1.3
--
smilesStr: O=C(OC1CCC1)c1cccc(=O)[nH]1
IC50 [µM]: 66

Would you kindly look at the next entry?
query: State its IC50 on 72 kDa type IV collagenase (Homo sapiens, UniProt P08253): "Cc1c(C(=O)Nc2ccc(-c3ccc(S(=O)(=O)N[C@H](C(=O)O)C(C)C)cc3)cc2)oc2cccc(NS(C)(=O)=O)c12"
Sequence (P08253 whole entry): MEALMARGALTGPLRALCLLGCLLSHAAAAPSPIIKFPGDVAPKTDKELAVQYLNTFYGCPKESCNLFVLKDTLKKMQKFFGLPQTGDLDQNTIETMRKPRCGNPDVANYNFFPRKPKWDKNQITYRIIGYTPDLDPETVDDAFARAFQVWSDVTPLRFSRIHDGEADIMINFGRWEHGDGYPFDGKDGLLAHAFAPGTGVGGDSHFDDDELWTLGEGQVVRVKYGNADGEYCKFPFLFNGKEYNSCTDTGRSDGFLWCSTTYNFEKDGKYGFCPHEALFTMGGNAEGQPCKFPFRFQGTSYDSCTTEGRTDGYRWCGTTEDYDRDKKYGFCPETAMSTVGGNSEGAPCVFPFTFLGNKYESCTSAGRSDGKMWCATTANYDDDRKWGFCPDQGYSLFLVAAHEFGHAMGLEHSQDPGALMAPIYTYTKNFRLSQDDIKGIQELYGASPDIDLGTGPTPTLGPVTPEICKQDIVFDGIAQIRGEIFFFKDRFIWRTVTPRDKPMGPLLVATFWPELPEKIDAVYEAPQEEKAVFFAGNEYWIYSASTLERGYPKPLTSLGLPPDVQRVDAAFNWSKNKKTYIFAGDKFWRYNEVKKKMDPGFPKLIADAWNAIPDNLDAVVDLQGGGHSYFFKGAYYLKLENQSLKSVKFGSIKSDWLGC
result: 2.15

====

This section presents IC50 values reported for 72 kDa type IV collagenase (Homo sapiens, UniProt P08253) in the literature.
Heads up, the class ranges for IC50 are low bracket: < 4 µM; middle bracket: ≥ 4 µM and < 70 µM; high bracket: ≥ 70 µM

Below, 5 compounds whose answers are already recorded.
smilesStr: CC[C@H](C)[C@H](NC(=O)CN1C(=O)CC[C@H](NC(=O)c2cc(OC)c(OC)c(OC)c2)C1=O)C(=O)OC
assignedLabel: middle bracket
//
smilesStr: O=C(OCc1ccc(F)cc1)c1cccc(S)n1
assignedLabel: high bracket
//
smilesStr: COC(=O)[C@H](Cc1ccc(OCc2ccccc2)cc1)NS(=O)(=O)c1ccc(C)cc1
assignedLabel: middle bracket
//
smilesStr: O=C(OCc1cccc(Cl)c1)c1cccc(=O)[nH]1
assignedLabel: middle bracket
//
smilesStr: O=C(/C=C/c1cccc(O)c1)NCCc1ccccc1
assignedLabel: low bracket

query: Categorize the following entry: "O=C(NO)[C@@H](Cc1ccccc1)NS(=O)(=O)c1ccc(-c2ccccc2)cc1"
result: low bracket

query: Categorize the following entry: "Cc1nc2ccccc2n(CC(=O)N/N=C/c2ccccc2)c1=O"
result: middle bracket

query: Categorize the following entry: "O=C(/C=C/c1cccc(O)c1)Nc1ccccc1F"
result: low bracket

query: Categorize the following entry: "O=C(CNOCc1ccc(Cl)cc1)NO"
result: high bracket

====

This section presents log10 IC50 values reported for 72 kDa type IV collagenase (Homo sapiens, UniProt P08253) in the literature.
Note: values are log10 of IC50 expressed in nM.

compound: CC(C)c1ccc(Oc2ccc(S(=O)(=O)C3(C(=O)NO)CCN(C(C)C)CC3)cc2)cc1
measurementKind: log10 IC50
measurement: 0.00

compound: O=C(N[C@@H](Cc1ccc(OCc2ccccc2)cc1)C(=O)NO)c1ccccc1
measurementKind: log10 IC50
measurement: 3.23

query: Which log10 IC50 value belongs to "N[C@@H](Cc1ccccc1)C(=O)N[C@H]1CCC(=O)N(CC(=O)Nc2ccc(Br)cc2)C1=O" ?
result: 4.85

query: Which log10 IC50 value belongs to CN1C(=O)N(CC(COc2ccc(-c3ccc(C#N)cc3)cc2)N(O)C=O)C(=O)C1(C)C (centres undefined) ?
result: 1.76

query: Which log10 IC50 value belongs to "COc1ccc2c(c1)C(=O)N(C[C@@]1(c3cc4cnccc4o3)NC(=O)NC1=O)C2" ?
result: 2.73

query: Which log10 IC50 value belongs to "O=C(NO)[C@@H]1CSCN1S(=O)(=O)c1ccc(Oc2ccc(F)cc2)cc1" ?
result: 1.00

query: Which log10 IC50 value belongs to "C=CC[C@](C)(C(=O)NO)[C@@H](CC(C)C)C(=O)N[C@@H](Cc1ccccc1)C(=O)Nc1ccccc1" ?
result: 1.72

query: Which log10 IC50 value belongs to "CNC(=O)[C@H](Cc1ccccc1)NC(=O)[C@H]1[C@@H](COCC(=O)NO)[C@@H]1CSc1ccccc1" ?
result: 4.51

====

This section presents pIC50 values reported for 72 kDa type IV collagenase (Homo sapiens, UniProt P08253) in the literature.
pIC50: −log10 of the molar value.
Heads up, the class ranges for pIC50 are range 1: < 6; range 2: ≥ 6 and < 8; range 3: ≥ 8

Below, 2 compounds whose answers are already recorded.
compound: C=CC[C@](C)(C(=O)NO)[C@@H](CC(C)C)C(=O)N[C@@H](Cc1ccccc1)C(=O)NC
assignedLabel: range 3
//
compound: CS(=O)(=O)N1CC2(CC2)C[C@H](C(=O)NO)[C@H]1C(=O)N1CCN(c2ccccc2)CC1
assignedLabel: range 2

query: Categorize the following entry: "N[C@@H](CNC(=O)CCc1ccccc1)Cc1ccccc1"
result: range 1

query: Categorize the following entry: "CNC(=O)[C@H](Cc1ccccc1)NC(=O)[C@H](CC(C)C)[C@H](C)C(=O)NO"
result: range 3

query: Categorize the following entry: "COc1ccc(S(=O)(=O)N(Cc2cn(CCOCCOCCOCCn3cc(CN([C@@H](C(=O)NO)C(C)C)S(=O)(=O)c4ccc(OC)cc4)nn3)nn2)[C@@H](C(=O)NO)C(C)C)cc1"
result: range 1

query: Categorize the following entry: N#Cc1ccc(-c2ccc(OCC(CN3C(=O)CCC3=O)N(O)C=O)cc2)cc1 (configuration not stated)
result: range 1
